I'd appreciate it if you could supply OD450 values for the items below.
Molecular target: T1, TNFRSF25-Fc fusion protein (UniProt Q93038 25-199, limits assumed, biotinylated in the capture ELISA (site not stated))
T1 construct: also called TNFRSF25-Fc protein; biotinylated antigen protein; not shown: Fc part
T1 sequence (looked up): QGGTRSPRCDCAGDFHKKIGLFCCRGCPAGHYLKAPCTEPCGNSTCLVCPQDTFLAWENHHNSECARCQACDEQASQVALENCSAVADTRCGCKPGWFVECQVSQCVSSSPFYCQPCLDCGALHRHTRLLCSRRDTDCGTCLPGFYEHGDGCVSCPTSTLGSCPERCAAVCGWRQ
Assay: single point capture ELISA, scFv captured by anti-c-myc, biotinylated antigen
Respond numerically; units are OD450 and should not be typed.

Inquiry: OD450 for 42F9 (scFv, V domains shown) VH: EVQLVESGGGLSQPGNSLQLSCEASGFTFSNHDLNWVRQAPGKGLEWVAYISSASGLISYADAVRGRFTISRDNAKNSLFLQMNNLKSEDTAMYYCARDPPYSGLYALDFWGQGTQVTVSS VL: QPVLTQSPSASASLSGSVKLTCTLSSELSFYTIVWYQQRPDKAPKYVMYLKSDGSHSKGDGIPDRFSGSSSGAHRYLSISNVQSEDDATYFCGAGYTLAGQYGWVFGSGTKVTVL ?
Reply text: 2.33

Inquiry: OD450 for 66B8 (scFv, V domains shown) VH: EVQLVESGGGLSQPGNSLQLSCEASGFTFSNHDLNWVRQAPGKGLEWVAYISSASGLISYADAVRGRFTISRDNAKNSLFLQMNNLKSEDTAMYYCARDPPYSGLYALDFWGQGTQVTVSS VL: QPVLTQSPSASASLSGSVKLTCTLSSELSSYTIVWYQQRPDKAPKYVMYLKSDGSHSKGDGIPDRFSGSSSGAHRYLSISNVQSEDDATYFCGAGYTLANQYGWVFGSGTKVTVL ?
Reply text: 0.4

Inquiry: OD450 for 42H8 (scFv, V domains shown) VH: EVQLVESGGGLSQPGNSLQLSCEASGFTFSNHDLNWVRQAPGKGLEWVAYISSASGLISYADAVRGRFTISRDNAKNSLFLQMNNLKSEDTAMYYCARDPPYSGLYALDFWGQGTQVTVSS VL: QPVLTQSPSASASLSGSVKLTCTLSSELSYYTIVWYQQRPDKAPKYVMYLKSDGSHSKGDGIPDRFSGSSSGAHRYLSISNVQSEDDATYFCGAGYTLAGQYGWVFGSGTKVTVL ?
Reply text: 1.67
